# SYSTEM NAME: CouP (RPA1789) periplasmic binding-protein (Rhodopseudomonas palustris, UniProt Q6N8W4)
# TEST DETAILS: Intrinsic tryptophan fluorescence spectroscopy / ligand titrations with CouP (RPA1789)
# CONDITION LABEL: 0.2 µM ligand added to 0.2 µM protein (equimolar), excitation 280 nm
# Procedure: Pure protein was unfolded by dialysis against 1 L of 6 M urea for 16 hours at 4°C. […] Changes in the UV fluorescence of intrinsic tryptophan residues in RPA1782 and RPA1789 were measured using a Cary Eclipse fluorimeter (Varian Ltd, UK) in 10 mM Tris-HCl buffer pH 7.4 at 30°C in a 3 ml volume. Excitation of samples was at 280 nm (5 nm slit width) and emission was recorded at 300–400 nm (20 nm slit width). […]
QUANTITY MEASURED: Quench of intrinsic tryptophan fluorescence of CouP (RPA1789)

COc1cc(C=CC(=O)O)cc(OC)c1O [sinapate]: ~5%
COc1cc(/C=C/C(=O)O)ccc1O [Ferulate]: 25–50%
O=C(O)/C=C/c1ccc(O)c(O)c1 [Caffeate]: 25–50%

Here is another compound to look at.
Which value of Quench of intrinsic tryptophan fluorescence of CouP (RPA1789) has been reported for O=C(O)/C=C/c1ccccc1 [Cinnamate, (E)-3-phenyl-2-propenoic acid] in the records? 25–50%

====

# SYSTEM NAME: CouP (RPA1789) periplasmic binding-protein (Rhodopseudomonas palustris)
# Sequence (Q6N8W4 27-385): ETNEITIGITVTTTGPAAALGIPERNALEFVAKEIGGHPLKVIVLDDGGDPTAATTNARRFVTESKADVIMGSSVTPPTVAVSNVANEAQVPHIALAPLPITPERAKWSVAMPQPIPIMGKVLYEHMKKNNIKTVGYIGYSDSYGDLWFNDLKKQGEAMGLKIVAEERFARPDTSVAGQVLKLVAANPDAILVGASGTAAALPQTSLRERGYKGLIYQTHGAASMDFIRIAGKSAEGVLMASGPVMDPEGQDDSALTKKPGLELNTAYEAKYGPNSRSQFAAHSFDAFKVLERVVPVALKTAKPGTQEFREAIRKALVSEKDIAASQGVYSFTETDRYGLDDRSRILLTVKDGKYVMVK
# TEST DETAILS: Intrinsic tryptophan fluorescence spectroscopy / ligand titrations with CouP (RPA1789)
Would you kindly list pKd for each of these compounds?
Numbers only, as −log10 of the molar value.

These recorded examples may help you get a feel for the data.
COc1cc(/C=C/C(=O)O)ccc1O [Ferulate]: 7.82
O=C(O)/C=C/c1ccc(O)c(O)c1 [Caffeate]: 8.62
O=C(O)/C=C/c1ccccc1 [Cinnamate, (E)-3-phenyl-2-propenoic acid]: 7.06

Tell me the measured pKd of O=C(O)/C=C/c1ccc(O)cc1 [Coumarate, (E)-3-(4-hydroxyphenyl)-2-propenoic acid] , please. 8.59

====

# SYSTEM NAME: TarP (RPA1782) periplasmic binding-protein (Rhodopseudomonas palustris, UniProt Q6N8X0)
# Sequence (Q6N8X0 20-336): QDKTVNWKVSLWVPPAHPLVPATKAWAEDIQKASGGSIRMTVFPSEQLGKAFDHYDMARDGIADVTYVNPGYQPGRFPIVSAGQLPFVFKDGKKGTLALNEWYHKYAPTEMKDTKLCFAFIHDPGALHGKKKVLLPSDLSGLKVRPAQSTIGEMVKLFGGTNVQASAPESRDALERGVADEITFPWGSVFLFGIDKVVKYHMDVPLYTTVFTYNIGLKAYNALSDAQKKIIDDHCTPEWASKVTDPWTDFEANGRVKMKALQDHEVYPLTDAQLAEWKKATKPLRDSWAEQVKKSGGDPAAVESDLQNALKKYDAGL
# TEST DETAILS: Intrinsic tryptophan fluorescence spectroscopy / ligand titrations with TarP (RPA1782)
QUANTITY MEASURED: pKd
Answers are plain numbers, as −log10 of the molar value.

A selection of reference data follows.
COc1cc(/C=C/C(=O)O)ccc1O [Ferulate]: 7.82
O=C(O)/C=C/c1ccc(O)cc1 [Coumarate, (E)-3-(4-hydroxyphenyl)-2-propenoic acid]: 8.10

Next, consider the following compound.
Short answer please: pKd, TarP (RPA1782) periplasmic binding-protein (Rhodopseudomonas palustris, UniProt Q6N8X0), entry O=C(O)/C=C/c1ccc(O)c(O)c1 [Caffeate] 7.85
